# Tested on: SK-MEL-2 melanoma
# protocol-summary: NCI tumour cell line growth inhibition, 48 h
quantity-name: TGI

compound	assay-system	TGI
C(=C1/CCCCC([n+]2ccccc2)=N1)/c1ccccc1	SK-MEL-2 melanoma	> 100 µM
Fc1ccccc1C1SCC2=Nc3ccccc3CN21 (configuration not stated)	SK-MEL-2 melanoma	> 100 µM
CCNC1=CC(=O)c2ncccc2C1=O	SK-MEL-2 melanoma	7.53 µM
CCCCCCCCSC(SCCCCCCCC)=C1C(=O)N(c2ccccc2)N=C1C	SK-MEL-2 melanoma	> 100 µM
CCOc1cc(C=Nc2ccc(Oc3ccc(Cl)cc3)c(Cl)c2)ccc1O	SK-MEL-2 melanoma	56.4 µM
C=C1C(=O)OC2C1CC1OC2C(C)CCC/C(C)=C\CCC1(C)O (configuration not stated)	SK-MEL-2 melanoma	32.7 µM

Request: Provide TGI value for the following compound: COc1cc([N+](=O)[O-])c2ncccc2c1O
Result: 52.4 µM

Request: Please report TGI for the following compound: NC(=O)CN1CCN(c2nc(N3CCCC3)c3nc(Cl)c(NCc4ccccc4)nc3n2)CC1
Result: 17.3 µM

Request: Return TGI (reported value) for this compound: O=C(N/N=C\c1cc(Cl)ccc1O)N/N=C/c1cc(Cl)ccc1O
Result: > 100 µM

Request: // fetch TGI given entry CN1C(C(=O)Nc2ccccn2)=C(O)c2ccccc2S1(=O)=O
Result: > 100 µM

Request: Retrieve TGI measured for COc1ccc2c(c1)[n+]([O-])c(-c1ccc(Cl)c(Cl)c1)c(N)[n+]2[O-] and print it.
Result: > 100 µM

Request: State its TGI for this compound: C[C@@H](CC(O)C(O)C(C)(C)O)C1CCC23CC12CCC1[C@@]2(C)CCC(=O)C(C)(C)C2CC(OC2OC(CO)C(O)C(O)C2O)[C@]13C (some centres not stated)
Result: > 10 µM

Request: Could you please provide reported TGI for O=C1C=Cc2noc3cccc1c23 ? Thanks!
Result: 21.2 µM

Request: Provide one value: measured TGI of CCSc1nn(-c2c3ccccc3nc3ccccc23)c(=S)s1
Result: > 100 µM

Request: Give TGI for Cc1ccc(C)c2sc3cc(=O)ccc-3nc12
Result: > 100 µM

Request: Dear colleague, please send me the reported TGI for O=C1CCC(c2ccccc2)(c2ccccc2)CC1 when you can.
Result: > 100 µM

Request: Fill in reported TGI for this entry: Fc1ccc(-c2c(-c3ccncc3)n(CCN3CCOCC3)c3cccnc23)cc1
Result: > 25 µM

Request: Note TGI for the compound shown: O=C(c1ccccc1)c1ccc2c(c1)N=C(c1ccc(Cl)c(Cl)c1)CC(c1ccc3ccccc3c1)N2 (configuration not stated)
Result: > 100 µM

Request: Could you please provide reported TGI for CC(C)(C)c1ccc(C(O)(c2ccc(C(C)(C)C)cc2)c2ccc(C(C)(C)C)cc2)cc1 ? Thanks!
Result: > 100 µM

###

Each record here notes measured TGI.
# System: A549 NSCLC
# protocol-summary: NCI tumour cell line growth inhibition, 48 h

Here is how some compounds turned out for TGI.
compound	reading
CC(C)S(=O)(=O)n1c(N)nc2ccc(/C(=N/O)c3ccccc3)cc21	49.3 µM
Nc1nc(Cl)cc(NCCCCCCCCCCNc2cc(Cl)nc(N)n2)n1	> 100 µM
C=C(C)[C@@H]1CC[C@]2(C#N)CC[C@]3(C)[C@H](CC[C@@H]4[C@@]5(C)CCCNC(C)(C)[C@@H]5CC[C@]43C)[C@@H]12	3.77 µM
c1csc(-c2csc(-c3cccs3)c2)c1	> 100 µM

Request: Give reported TGI value for C=C1C[C@]23CC[C@@H]4C(CO)(CO)CC(=O)C[C@]4(C)[C@@H]2C(O)C[C@H]1C3 (stereo not given in full)
Result: > 100 µM

Request: Using known records, supply TGI for Cc1ccc(C)c2sc3cc(=O)ccc-3nc12
Result: > 100 µM

Request: Item Fc1ccccc1C1SCC2=Nc3ccccc3CN21 (stereo not given) : provide TGI
Result: > 100 µM
